# log10(binding signal) per record follows
Biological target: T1, UNK ZnF1-6 (called full-length) (human, UniProt Q9C0B0 30-357)
T1 sequence: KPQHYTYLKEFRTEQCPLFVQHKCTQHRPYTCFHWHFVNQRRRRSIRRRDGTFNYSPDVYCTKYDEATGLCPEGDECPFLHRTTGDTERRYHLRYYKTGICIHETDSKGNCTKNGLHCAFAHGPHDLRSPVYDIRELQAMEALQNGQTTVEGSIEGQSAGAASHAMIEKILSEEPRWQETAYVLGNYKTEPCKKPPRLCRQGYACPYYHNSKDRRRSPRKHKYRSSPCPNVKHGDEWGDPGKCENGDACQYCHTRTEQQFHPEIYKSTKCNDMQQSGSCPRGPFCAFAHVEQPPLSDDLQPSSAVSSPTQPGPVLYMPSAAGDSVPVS
Test: nsRBNS (natural sequence RNA bind-n-seq); RBNS binding buffer (assumed for nsRBNS): 25 mM Tris pH 7.5, 150 mM KCl, 3 mM MgCl2, 0.01% Triton X-100, 500 ug/ml BSA, 20 U/ml SUPERase-In, 4 C; UNK is unkempt and MSI1 is Musashi-1; names of the RNAs are library labels; protein concentration not given here; high values mean tight binding
Over roughly 5,800 sequences, “enrichment r” has its median near 0.68; the highest 2% begin near 11. The entries come from a sample that favours the highest values as a whole.
// units: enrichment R (pre-log); metric: binding signal; scale: log10

chr7:127374855:127374969:-|CDS|ENSG00000048405|unk|FALSE|unique (ssRNA) RNA: GGGAGUUCUACAGUCCGACGAUCCCUAGAAGCCAUAUAUCCAAGUGUGGACAAACGAGAAUAUAUUAUUAAGCUAGAACCCAUAGAAACUAAUCAAAAUGCAGUAUUUCAAUAUAUUUCGAGGACUGAUAAUCCUAUUGAAGUCAACAGAGGAUUGAGCAUCA	1.26

Query :: Tell me log10(binding signal) reported for chr2:73730642:73730743:-|CDS|ENSG00000144034|unk|FALSE|unique (ssRNA) RNA: GGGAGUUCUACAGUCCGACGAUCUUCAGACGUAGGAAACAAUGGUUAAUGAUCUUGUGUUUUUUUUUUCAUUUUUUUUCUCUUAGAUUUCAGAGGCUUUGAAAAAAUUUGGUAUCUCAGCAAAUGACACUUCAAUUCUAAUUGCAACAGAGGAUUGAGCAUCA
Result :: 0.16

Query :: Identify measured log10(binding signal) corresponding to chr4:145760401:145760502:-|3pUTR|ENSG00000151612|unk|FALSE|unique (ssRNA) RNA: GGGAGUUCUACAGUCCGACGAUCUCCGUACUUUUCUCUGAAAGGAAUCUUGUCUUGUUAAACCCUAAAGAGAGUGUCCUUAAUAGCAAUCAGCACUUGUAAGCUUAUAUACUGGUGCAUUUGGUUUUCUGUUGGGUGAAUGCGCAACAGAGGAUUGAGCAUCA
Result :: -0.44

Query :: Please report log10(binding signal) for the following binder: chr1:214641902:214642005:+|CDS|ENSG00000117724|unk|total|mutant (ssRNA) RNA: GGGAGUUCUACAGUCCGACGAUCAGAAAUCAAUGUAAUUUUAAACCUCAGAUGGAUCUUGAAGUUAAAGAAAUUUCUCCCGACCGUUAUAAUGCGCAGUUGGUGCAAUCCGAAGCUAUGCUAAGAAAUAAGGAAUUAAAACUUCAACAGAGGAUUGAGCAUCA
Result :: -0.40

Query :: Quote log10(binding signal) reported for chr6:96891104:96891324:-|CDS|ENSG00000123545|unk|FALSE|unique (ssRNA) RNA: GGGAGUUCUACAGUCCGACGAUCUAAUCAUAAGCUUUUCCCAGAAACCUGGACUGCUGAGAAAAUAAUGCAGGAAUACCAGUUAGAACAGAAAGAUGUGAAUUCUCUUCUUAAAUAUUUUGUUACUUUUGAAGUCGAAAUCUUCAACAGAGGAUUGAGCAUCA please.
Result :: -0.19

Query :: Return log10(binding signal) for the following binder: chr2:1632960:1633155:-|3pUTR|ENSG00000130508|msi1|FALSE|unique (ssRNA) RNA: GGGAGUUCUACAGUCCGACGAUCGUCCAUUUUUUAGGUAUUAGAUAUGGCAGAAAAACCAUUUCCACUAUGCAAAGUUCUUUUAGACGUCAGUGAAAAUCAACUCUCAUACCUCAUGGUCUCUCUUUAAUUGACCAAAACCUUCAACAGAGGAUUGAGCAUCA
Result :: -0.04

Query :: Kindly indicate its recorded log10(binding signal). Item: chr12:48145849:48145950:+|3pUTR|ENSG00000152556|msi1|FALSE|unique (ssRNA) RNA: GGGAGUUCUACAGUCCGACGAUCCAUGACCAGUUCUGGCCAGGAGCUGGAGGAGCAGGCAGUGGGUGGGAGCUCCUUUUAGGUAGAAUUUAACAUGACUUCUGCCCCAGCUUUAUCUGUCACACAAGGCUGGGCACCUCUAGUCAACAGAGGAUUGAGCAUCA
Result :: 0.80

Query :: Identify the reported log10(binding signal) for the following entry. chr2:165880514:165880799:-|CDS|ENSG00000123607|control|control|control (ssRNA) RNA: GGGAGUUCUACAGUCCGACGAUCGAUGGCAUGGAAAUAUAGCAAUCGGACAAAUCCGGCAGUAGGUGAGUUUGGCAAUCACCUAGAUUUUUCACAGAAAAAUUAUGUUGUAUUUAUUAAUUUUCAUUUAAAUGCAUUUGAUUUCAACAGAGGAUUGAGCAUCA
Result :: -0.27

Query :: Return log10(binding signal) for the following binder: chr12:88196262:88196297:+|3pUTR|ENSG00000139324|msi1_unk|FALSE|overlapping (ssRNA) RNA: GGGAGUUCUACAGUCCGACGAUCUGUAUACUUGUUUUUAACUUUAAAUGUAAUUUUUAAUCAGGUAAAGUUUGACACAUGUAUAGCUACAUACACACAUUUUUAAUGGUGCUCAUAUAUACUGUAUUUUUUGUUGUUUAGUUUCAACAGAGGAUUGAGCAUCA
Result :: 0.55

Query :: State its log10(binding signal) for this binder: chr5:113014749:113014850:+|3pUTR|ENSG00000172795|msi1|total|mutant (ssRNA) RNA: GGGAGUUCUACAGUCCGACGAUCUAAAAAUCCUUUUUUACAGUGGUAUCCACAAAAUACUUCUCUGCUUAUAAAUGUUAUUGCCGAAAUCUUUAUUCUGUGCCGGCCGCCUAUUUAAUUGGGUUCCACUGAACCUCAUGGGACCAACAGAGGAUUGAGCAUCA
Result :: -0.25

Query :: Name the recorded log10(binding signal) of the binder listed here: chr16:70160055:70160156:+|3pUTR|ENSG00000090857|msi1|total|mutant (ssRNA) RNA: GGGAGUUCUACAGUCCGACGAUCUUGUGCUCACCACGAAGGAUGGUCUCUGCCUUCUCUUGUCGGUGUAUGCCAUCUGAACCCCGGAACACAAAGUAUAUUGGCCUCAAACGGAGACCCAGGGUUGCCAGUUUUCCGUGGGCCCAACAGAGGAUUGAGCAUCA
Result :: -0.33

Query :: Provide measured log10(binding signal) value, entry: chr17:47844907:47847298:-|three_prime_utr|ENSG00000189120|control|control|control (ssRNA) RNA: GGGAGUUCUACAGUCCGACGAUCAAGGUGCGUAUUUAUUCAGGGAGGAGGAAAAGUGGUGCAGGGACAGGGAGAUGGGGCGCUAGGGGUUCUUAGUCUCUGGGGCUACUAGGCAGGAUGAAUUUGACUGGGUCGGUAGGAGCUCAACAGAGGAUUGAGCAUCA
Result :: 0.12

Query :: Please supply the value of reported log10(binding signal) for the item chr15:63775065:63775180:-|CDS|ENSG00000103657|unk|FALSE|unique (ssRNA) RNA: GGGAGUUCUACAGUCCGACGAUCUGGUUCAGCAGAUGUCCAUUCUGUUAGUGAACGCCCCCGGUCAAGCACUGAUGCACUUAUAGAAAUGGGUGUUCGAACUGGUCUAAGUUUAUUAUUUGCGCUUCUAAGACAAAGUUGGAUCAACAGAGGAUUGAGCAUCA
Result :: -0.16

The measured values listed here are drawn from paper PMC12136788.
